molecular target: McinOBP1-m1 (Val58 to alanine) (Macrocentrus cingulum, UniProt X2D9T4, V58A); experiment: Competitive fluorescence binding assay, displacement of 1-NPN; conditions: McinOBP1-m1; read-out: IC50
quantity-name: IC50 (µM)
Report the figure in µM without appending any unit label.

Request: Item C=C1CC/C=C(\C)CC[C@@H]2[C@@H]1CC2(C)C [Trans-Caryophelle, β- Caryophelle] has what recorded IC50?
Result: 70.7

====

// IC50 lookup, one value per entry
biological target: McinOBP1-wt (Macrocentrus cingulum); assay: Competitive fluorescence binding assay, displacement of 1-NPN; conditions: read-out: IC50 (ligand concentration displacing 50% of the fluorescence of the McinOBP1/1-NPN complex); McinOBP1-wt; pH 7.4; 2 μM 1-NPN
Report the figure in µM without appending any unit label.

Take a look at these entries with their results.
compound: C=C(C)[C@H]1CC=C(C)CC1 [Limonene]
IC50 [µM]: 21.1
--
compound: CC/C=C/CCOC(C)=O [Trans-3-Hexen-1-ol-Acetate]
IC50 [µM]: 23.9
--
compound: C=CC(=C)CC/C=C(\C)CCC=C(C)C [β-Farnesene]
IC50 [µM]: 28.5

Okay, now this compound:
Request: Item C=C1CC/C=C(\C)CC[C@@H]2[C@@H]1CC2(C)C [Trans-Caryophelle, β- Caryophelle] has what recorded IC50?
Result: 7.51

====

molecular target: McinOBP1-m1 (Val58 to alanine) (Macrocentrus cingulum, UniProt X2D9T4, V58A); experiment: Competitive fluorescence binding assay, displacement of 1-NPN; conditions: McinOBP1-m1; read-out: KD
quantity-name: pKd
As a rule, pKd stands for the negative log10 of the concentration, concentration in M.

Request: Identify the measured pKd of C=C1CC/C=C(\C)CC[C@@H]2[C@@H]1CC2(C)C [Trans-Caryophelle, β- Caryophelle] for McinOBP1-m1 (Val58 to alanine) (Macrocentrus cingulum, UniProt X2D9T4, V58A).
Result: 4.18

====

biological target: McinOBP1-m1 (Val58 to alanine) (Macrocentrus cingulum, UniProt X2D9T4, V58A); test: Competitive fluorescence binding assay, displacement of 1-NPN
quantity-name: pIC50
As a rule, pIC50 stands for the negative log10 of the concentration, concentration in M.

compound: CCCCCC/C=C/C=O [Trans-2-Nonenal]
pIC50: 4.87

Okay, now this compound:
Request: Item CC/C=C\CCO [Cis-3-Hexen-1-ol] has what recorded pIC50?
Result: 4.63

====

Target: McinOBP1-m2 (Leu62 to proline) (Macrocentrus cingulum, UniProt X2D9T4, L62P)
Sequence (X2D9T4 21-140 L62P): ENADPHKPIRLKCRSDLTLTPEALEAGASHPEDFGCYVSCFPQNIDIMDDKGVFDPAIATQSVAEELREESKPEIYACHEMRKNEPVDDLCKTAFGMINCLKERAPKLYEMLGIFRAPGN
Assay: Competitive fluorescence binding assay, displacement of 1-NPN
Details: McinOBP1-m2; read-out: KD
quantity-name: pKd
As a rule, pKd stands for the negative log10 of the concentration, concentration in M.

Request: Item C=C1CC/C=C(\C)CC[C@@H]2[C@@H]1CC2(C)C [Trans-Caryophelle, β- Caryophelle] has what recorded pKd?
Result: 4.38

====

Molecular target: McinOBP1-m3 (Glu130 to alanine) (Macrocentrus cingulum, UniProt X2D9T4, E130A)
Experiment: Competitive fluorescence binding assay, displacement of 1-NPN
Text: The three mutants of McinOBP1, m1 (mutation of amino acid, valine to alanine at 58 position), m2 (mutation of amino acid, leucine to proline at 62 position) and m3 (mutation of amino acid, glutamic to alanine at 130 position), were developed using the kit of Quick-change lightning site-directed mutagenesis (Stratagene, La Jolla, CA, USA). The McinOBP1-wt/pGEM-T Easy construct was used as a template. The primers were designed manually and mutation sites are underlined as listed below. […]
// IC50 lookup, one value per entry
Report the figure in µM without appending any unit label.

compound: CCCCCC/C=C/C=O [Trans-2-Nonenal]
result-unit: µM
IC50: 76.7

Okay, now this compound:
Request: Item CC/C=C\CCO [Cis-3-Hexen-1-ol] has what recorded IC50?
Result: 29.5

====

Molecular target: McinOBP1-m1 (Val58 to alanine) (Macrocentrus cingulum, UniProt X2D9T4, V58A)
Assay: Fluorescence binding of the probe 1-NPN (direct titration)
Settings: 2 μM protein, pH 7.4
Excerpt: The three mutants of McinOBP1, m1 (mutation of amino acid, valine to alanine at 58 position), m2 (mutation of amino acid, leucine to proline at 62 position) and m3 (mutation of amino acid, glutamic to alanine at 130 position), were developed using the kit of Quick-change lightning site-directed mutagenesis (Stratagene, La Jolla, CA, USA). The McinOBP1-wt/pGEM-T Easy construct was used as a template. The primers were designed manually and mutation sites are underlined as listed below. […]
quantity-name: Kd (µM)
Report the figure in µM without appending any unit label.

Request: Item c1ccc(Nc2cccc3ccccc23)cc1 has what recorded Kd?
Result: 14.6

====

target: McinOBP1-wt (Macrocentrus cingulum, UniProt X2D9T4); assay: Competitive fluorescence binding assay, displacement of 1-NPN
// NB: equality with 10 µM counts as 0 (no); only IC50 strictly below is 1 (yes)

Request: is_below(IC50, 10 µM) for CC/C=C\CCO [Cis-3-Hexen-1-ol] ?
Result: 1 (yes)

====

biological target: McinOBP1-m3 (Glu130 to alanine) (Macrocentrus cingulum, UniProt X2D9T4, E130A); assay: Competitive fluorescence binding assay, displacement of 1-NPN; settings: McinOBP1-m3; read-out: IC50
quantity-name: IC50

Request: Item C=C1CC/C=C(\C)CC[C@@H]2[C@@H]1CC2(C)C [Trans-Caryophelle, β- Caryophelle] has what recorded IC50?
Result: 47.8 µM

====

molecular target: McinOBP1-m2 (Leu62 to proline) (Macrocentrus cingulum, UniProt X2D9T4, L62P); assay: Competitive fluorescence binding assay, displacement of 1-NPN; settings: McinOBP1-m2; read-out: IC50
quantity-name: pIC50
As a rule, pIC50 stands for the negative log10 of the concentration, concentration in M.

Request: Item C=C1CC/C=C(\C)CC[C@@H]2[C@@H]1CC2(C)C [Trans-Caryophelle, β- Caryophelle] has what recorded pIC50?
Result: 4.35

====

molecular target: McinOBP1-m3 (Glu130 to alanine) (Macrocentrus cingulum, UniProt X2D9T4, E130A); assay: Competitive fluorescence binding assay, displacement of 1-NPN; settings: McinOBP1-m3; read-out: KD
quantity-name: Kd (µM)
Report the figure in µM without appending any unit label.

Request: Item C=C1CC/C=C(\C)CC[C@@H]2[C@@H]1CC2(C)C [Trans-Caryophelle, β- Caryophelle] has what recorded Kd?
Result: 41.4

====

Target: McinOBP1-m3 (Glu130 to alanine) (Macrocentrus cingulum, UniProt X2D9T4, E130A)
Assay: Fluorescence binding of the probe 1-NPN (direct titration)
Details: 2 μM protein, pH 7.4
From the text: The three mutants of McinOBP1, m1 (mutation of amino acid, valine to alanine at 58 position), m2 (mutation of amino acid, leucine to proline at 62 position) and m3 (mutation of amino acid, glutamic to alanine at 130 position), were developed using the kit of Quick-change lightning site-directed mutagenesis (Stratagene, La Jolla, CA, USA). The McinOBP1-wt/pGEM-T Easy construct was used as a template. The primers were designed manually and mutation sites are underlined as listed below. […]
quantity-name: pKd
As a rule, pKd stands for the negative log10 of the concentration, concentration in M.

Request: Item c1ccc(Nc2cccc3ccccc23)cc1 [1-NPN, N-phenyl-1-naphthylamine] has what recorded pKd?
Result: 5.19

====

target: McinOBP1-m1 (Val58 to alanine) (Macrocentrus cingulum, UniProt X2D9T4, V58A); assay: Competitive fluorescence binding assay, displacement of 1-NPN
// pKd lookup, one value per entry
As a rule, pKd stands for the negative log10 of the concentration, concentration in M.

compound: CC/C=C\CCO [Cis-3-Hexen-1-ol]
observed-result: 4.66

Okay, now this compound:
Request: Item CCCCCC/C=C/C=O [Trans-2-Nonenal] has what recorded pKd?
Result: 4.90

====

Molecular target: McinOBP1-wt (Macrocentrus cingulum, UniProt X2D9T4)
Experiment: Competitive fluorescence binding assay, displacement of 1-NPN
Conditions: McinOBP1-wt; pH 7.4; 2 μM 1-NPN
Method: Fluorescence binding assays were recorded on Shimadzu fluorescence spectrophotometer (Shimadzu, Japan) with a 1 cm light path quartz cuvette; both excitation and emission silts widths were 5 nm. The probe was excited at 337 nm and emission spectra were recorded between 350 and 500 nm. […] For determining the bound ligand from the intensity values of fluorescence emission assuming that the proteins were 100% active, with a stoichiometry of 1∶1 (protein:ligand) at saturation. […]
quantity-name: IC50 (µM)
Report the figure in µM without appending any unit label.

Take a look at these entries with their results.
compound: CCCCC/C=C/C=O [Trans-2-Octenal]
system: McinOBP1-wt (Macrocentrus cingulum, UniProt X2D9T4)
IC50 (µM): 15.7

compound: CCCCCCC=O [Heptanal]
system: McinOBP1-wt (Macrocentrus cingulum, UniProt X2D9T4)
IC50 (µM): 35.5

compound: CCCCCCCCC=O [Nonanal]
system: McinOBP1-wt (Macrocentrus cingulum, UniProt X2D9T4)
IC50 (µM): 19.6

Okay, now this compound:
Request: Item CCCCCc1ccco1 [2-Pentylfuran] has what recorded IC50?
Result: 19.1
